meta.source: patent US20250101038A1

# target_entity: 5-HT2B receptor (Homo sapiens)
# Construct: host or cells: CHO-K1
# measurement_notes: cell-based
# study_conditions: agonist activity, Ca2+ flux, CHO-K1 cells
# Emax listing for each entry below
Numbers only here, please. The scale is %.

Query: Name the reported Emax value associated with the compound CN(C)CCc1c[nH]c2c(F)cc(F)cc12
Response: -4.13

Query: Another compound to check: CCCN(C)CCc1c[nH]c2c(C)cc(OC)cc12
Response: 1.37

Query: Another: CCN(C)CCc1c[nH]c2c(C)cc(OC)cc12
Response: 0.85

Query: And CCN(C)CCc1c[nH]c2cc(F)cc(OC)c12 ?
Response: 19.6

Query: Now the compound CN(C)CCc1c[nH]c2cc(F)c(F)cc12
Response: 10.6

====

# target_entity: 5-HT2B receptor (Homo sapiens)
# Construct: host or cells: CHO-K1
# measurement_notes: cell-based
# study_conditions: agonist activity, Ca2+ flux, CHO-K1 cells
// assign Fulfilled if Emax falls strictly below 30%, else Not fulfilled (ties count as Not fulfilled)

Take a look at these entries with their results.
CCN(CC)CCc1c[nH]c2ccc(C)c(O)c12 ... Fulfilled
COc1cc2c(CCN(C)C)c[nH]c2cc1C ... Fulfilled
CC(C)N(CCc1c[nH]c2ccc3ocnc3c12)C(C)C ... Not fulfilled
Cc1ccc(O)c2c(CCN(C(C)C)C(C)C)c[nH]c12 ... Fulfilled
COc1ccc(C)c2[nH]cc(CCN(C)C(C)C)c12 ... Fulfilled

Query: Dear colleague, could you confirm whether Emax of CCN(CC)CCc1c[nH]c2ccc(F)c(OC)c12 falls below 30%? Thanks.
Response: Not fulfilled

Query: Another: COc1cc(F)c2[nH]cc(CCN(C)C(C)C)c2c1
Response: Fulfilled

Query: Thanks! And COc1ccc(C)c2[nH]cc(CCN(C)C)c12 ?
Response: Fulfilled

Query: Quick one: CN(C)CCc1c[nH]c2ccc(F)c(F)c12
Response: Fulfilled

====

Quick list: concentration at 0.5 h per entry.
# measurement_notes: In vivo pharmacokinetics, plasma and brain exposure after IP dosing
# Set-up: species or system male C57BL/6 mice
# study_conditions: male, C57BL/6, mouse, brain, ip, 10 mg/kg, 0.5 h, n = 3, read-out: Brain Parenchyma Concentration, Mean ± SD
Just the number in µM, nothing appended.

CCN(C)CCc1c[nH]c2c(C)cc(OC)cc12 ... 36.6
CCN(C)CCc1c[nH]c2ccc(OC)c(C)c12 ... 23.6

Query: Please look up its concentration at 0.5 h: CCN(C)CCc1c[nH]c2cc(C)c(OC)cc12
Response: 26.2

====

Measured Cmax accompanies every entry in the list below.
# measurement_notes: In vivo pharmacokinetics, plasma and brain exposure after IP dosing
# Set-up: species or system male C57BL/6 mice
# study_conditions: mouse, plasma; male C57BL/6 mice, IP 10 mg/kg

CCN(C)CCc1c[nH]c2cc(C)c(OC)cc12 ... 2620 nM
CCN(C)CCc1c[nH]c2ccc(OC)c(C)c12 ... 2560 nM

Then this molecule:
Query: Using the record for CCN(C)CCc1c[nH]c2c(C)cc(OC)cc12 , report its Cmax.
Response: 6430 nM

====

# target_entity: 5-HT2B receptor (Homo sapiens, UniProt P41595)
# Construct: host or cells: CHO-K1
# Sequence (P41595 whole entry): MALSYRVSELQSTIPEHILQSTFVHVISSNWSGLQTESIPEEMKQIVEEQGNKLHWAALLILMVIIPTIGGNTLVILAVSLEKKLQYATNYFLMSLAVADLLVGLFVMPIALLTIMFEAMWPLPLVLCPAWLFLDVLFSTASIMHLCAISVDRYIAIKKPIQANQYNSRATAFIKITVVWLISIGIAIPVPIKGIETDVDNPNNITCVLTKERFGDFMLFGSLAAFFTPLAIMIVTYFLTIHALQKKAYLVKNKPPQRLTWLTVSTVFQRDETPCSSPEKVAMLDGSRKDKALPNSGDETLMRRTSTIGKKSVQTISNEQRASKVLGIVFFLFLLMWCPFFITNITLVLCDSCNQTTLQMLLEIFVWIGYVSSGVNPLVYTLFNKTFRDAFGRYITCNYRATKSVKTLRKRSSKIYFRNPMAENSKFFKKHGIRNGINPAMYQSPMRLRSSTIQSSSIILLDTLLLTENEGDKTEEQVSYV
# measurement_notes: cell-based
# study_conditions: agonist activity, Ca2+ flux, CHO-K1 cells
measure: Emax (%)
Write the number in % without appending the unit.

CCN(CC)CCc1c[nH]c2c(C)ccc(OC)c12 ... 0.89
CCCN(CCC)CCc1c[nH]c2c(C)ccc(O)c12 ... 6.63
CCN(C)CCc1c[nH]c2ccc(C)c(OC)c12 ... 68.1
CCN(CC)CCc1c[nH]c2ccc3oc(C)nc3c12 ... 56.4
Cc1nc2c(ccc3[nH]cc(CCN(C(C)C)C(C)C)c32)o1 ... 91.3
CCN(C)CCc1c[nH]c2c(C)ccc(O)c12 ... 0.13
CCN(CCc1c[nH]c2ccc(OC)c(C)c12)C(C)C ... 33.8
CCN(CC)CCc1c[nH]c2c(C)cc(OC)cc12 ... 7.69
CCN(CC)CCc1c[nH]c2ccc3ocnc3c12 ... 41.1

We now examine a further molecule.
Query: Would you mind telling me what Emax value was observed for CCN(C)CCc1c[nH]c2c(F)ccc(OC)c12 ?
Response: 3.44

====

Quick reference for pEC50 among some compounds
# target_entity: 5-HT2C receptor (Homo sapiens)
# Construct: host or cells: HEK293
# Sequence (P28335 33-458): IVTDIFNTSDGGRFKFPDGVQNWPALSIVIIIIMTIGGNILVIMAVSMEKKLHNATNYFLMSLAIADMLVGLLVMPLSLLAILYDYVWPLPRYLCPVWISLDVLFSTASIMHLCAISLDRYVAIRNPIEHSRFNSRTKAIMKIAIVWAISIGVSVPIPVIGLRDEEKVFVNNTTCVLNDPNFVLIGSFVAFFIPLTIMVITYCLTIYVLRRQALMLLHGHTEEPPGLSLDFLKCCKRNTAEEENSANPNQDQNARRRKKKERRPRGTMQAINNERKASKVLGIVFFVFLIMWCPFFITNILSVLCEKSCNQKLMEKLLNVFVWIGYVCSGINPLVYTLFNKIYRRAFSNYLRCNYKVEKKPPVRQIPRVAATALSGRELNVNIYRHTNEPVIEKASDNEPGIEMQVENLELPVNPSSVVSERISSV
# measurement_notes: cell-based
# study_conditions: agonist activity, Ca2+ flux, HEK293 cells; read-out: 5-HT2C EC50
Please note pEC50 is a logarithmic value: minus log10 of concentration in mol/L. Answer with that number alone.

COc1cc(C)c2[nH]cc(CCN(C(C)C)C(C)C)c2c1 [Example P-58] ... 5.77
COc1ccc(C)c2[nH]cc(CCN(C)C(C)C)c12 [Example P-81] ... 6.12

Query: Which pEC50 reading was recorded for the compound CCN(CC)CCc1c[nH]c2cc(F)cc(OC)c12 [Example P-98] ?
Response: 6.51

Query: Request: CCN(CC)CCc1c[nH]c2ccc(C)c(O)c12 [Example P-67]
Response: 6.04

Query: Try CC(C)N(CCc1c[nH]c2ccc3ocnc3c12)C(C)C [Example P-130] next.
Response: 6.69

====

# target_entity: 5-HT2B receptor (Homo sapiens, UniProt P41595)
# Construct: host or cells: CHO-K1
# measurement_notes: cell-based
# study_conditions: agonist activity, Ca2+ flux, CHO-K1 cells; read-out: 5-HT2B EC50
measure: EC50

Reference set (3 entries):
COc1cc(F)cc2[nH]cc(CCN(C)C(C)C)c12 [Example P-97] ... > 10 µM
CCCN(CCC)CCc1c[nH]c2c(C)ccc(O)c12 [Example P-89] ... ≥ 10 µM
CCCN(C)CCc1c[nH]c2c(C)cc(OC)cc12 [Example P-52] ... > 10 µM

Query: Record request: EC50 value, item CC(C)N(C)CCc1c[nH]c2cc(F)cc(F)c12 [Example P-149]
Response: ≥ 10 µM

Query: Note, next up: CCN(CC)CCc1c[nH]c2c(C)cc(OC)cc12 [Example P-54]
Response: > 10 µM

Query: Item: COc1cc(F)c2[nH]cc(CCN(C(C)C)C(C)C)c2c1 [Example P-118]
Response: 0.0663 µM

Query: Further, for CCN(CCc1c[nH]c2ccc(OC)c(C)c12)C(C)C [Example P-40] ?
Response: > 10 µM

Query: Thanks! And COc1ccc(F)c2[nH]cc(CCN(C)C(C)C)c12 [Example P-103] ?
Response: > 10 µM

Query: Thanks! And COc1cc(F)cc2[nH]cc(CCN(C)C)c12 [Example P-14] ?
Response: > 10 µM

Query: Now this one: Cc1nc2c(ccc3[nH]cc(CCN(C)C(C)C)c32)o1 [Example P-133]
Response: 0.0686 µM

Query: // same read-out, input: CCN(CC)CCc1c[nH]c2ccc(C)c(OC)c12 [Example P-61]
Response: > 10 µM

====

We begin with a simple list: items and their reported EC50.
# target_entity: 5-HT2A receptor (Homo sapiens)
# Construct: host or cells: HEK293
# Sequence (P28223 whole entry): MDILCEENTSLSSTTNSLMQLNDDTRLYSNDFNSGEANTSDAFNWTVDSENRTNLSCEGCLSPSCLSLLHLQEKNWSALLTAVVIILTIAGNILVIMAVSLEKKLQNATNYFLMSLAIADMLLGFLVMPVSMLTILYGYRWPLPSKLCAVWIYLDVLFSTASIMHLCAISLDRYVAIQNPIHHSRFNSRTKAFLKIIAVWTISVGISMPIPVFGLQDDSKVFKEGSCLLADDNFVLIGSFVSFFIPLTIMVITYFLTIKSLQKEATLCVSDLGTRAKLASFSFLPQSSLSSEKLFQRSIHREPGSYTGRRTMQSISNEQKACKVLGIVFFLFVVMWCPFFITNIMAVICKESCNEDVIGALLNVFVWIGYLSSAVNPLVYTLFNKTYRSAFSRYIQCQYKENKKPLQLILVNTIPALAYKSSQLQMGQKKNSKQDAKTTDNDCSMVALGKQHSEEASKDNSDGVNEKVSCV
# measurement_notes: FLIPR Ca2+ flux functional assay, 5-HT2A
# Type: cell-based
# study_conditions: agonist activity, Ca2+ flux, HEK293 cells; read-out: 5-HT2A EC50
# Description: Activity at 5-HT2A, 5-HT2B and 5-HT2C receptors was determined using a FLIPR Ca^2+ flux assay at WuXi AppTec Co. Ltd. (Hong Kong) Discovery Biology Unit according to their standard protocols. […] 10 μL of references and compounds were then transferred from the compound plate into the cell plate and the fluorescent signal was read.
Report the figure in nM without appending any unit label.

Sample answers from the record:
CCN(CC)CCc1c[nH]c2cc(C)c(OC)cc12 ... 78.2
CCCN(C)CCc1c[nH]c2ccc(C)c(O)c12 ... 56.1
CN(C)CCc1c[nH]c2cc(F)cc(F)c12 ... 29.2
COc1cc(F)c2[nH]cc(CCN(C)C(C)C)c2c1 ... 15.7

Okay, next one:
Query: Look up EC50: CN(C)CCc1c[nH]c2c(F)c(F)ccc12
Response: 28.6
